- targetOrTestSystem: T1, CD96 (UniProt P40200 22-585, limits assumed)
- T1 construct: whole, on cells
- T1 sequence (looked up): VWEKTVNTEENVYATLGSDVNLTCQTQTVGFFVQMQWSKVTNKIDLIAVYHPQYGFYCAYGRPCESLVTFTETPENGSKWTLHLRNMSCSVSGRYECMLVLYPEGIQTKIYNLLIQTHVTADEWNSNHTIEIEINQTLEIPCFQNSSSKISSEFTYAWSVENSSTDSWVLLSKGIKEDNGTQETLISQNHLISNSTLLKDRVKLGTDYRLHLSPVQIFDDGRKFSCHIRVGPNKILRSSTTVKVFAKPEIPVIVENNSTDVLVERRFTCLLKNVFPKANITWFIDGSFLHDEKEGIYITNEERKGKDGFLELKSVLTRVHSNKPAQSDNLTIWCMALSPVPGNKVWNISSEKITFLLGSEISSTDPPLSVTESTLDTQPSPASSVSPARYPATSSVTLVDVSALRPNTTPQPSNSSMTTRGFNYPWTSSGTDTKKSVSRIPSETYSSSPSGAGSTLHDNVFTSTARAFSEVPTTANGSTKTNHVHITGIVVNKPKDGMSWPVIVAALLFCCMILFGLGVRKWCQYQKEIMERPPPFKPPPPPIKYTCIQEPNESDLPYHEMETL
- assayComment: flow cytometry, Fc fusion at 100 nM, CD96-transfected cells
readoutType: MFI at 100 nM (MFI)
Numeric only. Scale: MFI

1) variant CD155 IgV-Fc L104Q (Fc fusion, not shown: a dimerising Fc or GST) WPPPGTGDVVVQAPTQVPGFLGDSVTLPCYLQVPNMEVTHVSQLTWARHGESGSMAVFHQTQGPSYSESKRLEFVAARLGAELRNASLRMFGLRVEDEGNYTCQFVTFPQGSRSVDIWLRVL | 1540
2) variant CD155 IgV-Fc S42G (Fc fusion, not shown: a dimerising Fc or GST) WPPPGTGDVVVQAPTQVPGFLGDSVTLPCYLQVPNMEVTHVGQLTWARHGESGSMAVFHQTQGPSYSESKRLEFVAARLGAELRNASLRMFGLRVEDEGNYTCLFVTFPQGSRSVDIWLRVL | 1700
3) variant CD155 IgV-Fc S52M/L104Q (Fc fusion, not shown: a dimerising Fc or GST) WPPPGTGDVVVQAPTQVPGFLGDSVTLPCYLQVPNMEVTHVSQLTWARHGEMGSMAVFHQTQGPSYSESKRLEFVAARLGAELRNASLRMFGLRVEDEGNYTCQFVTFPQGSRSVDIWLRVL | 1630

The record that follows has no MFI at 100 nM shown yet.
Q) Could you tell me which MFI at 100 nM is on file for variant CD155 IgV-Fc S42N/L104Q/G111R (Fc fusion, not shown: a dimerising Fc or GST) WPPPGTGDVVVQAPTQVPGFLGDSVTLPCYLQVPNMEVTHVNQLTWARHGESGSMAVFHQTQGPSYSESKRLEFVAARLGAELRNASLRMFGLRVEDEGNYTCQFVTFPQRSRSVDIWLRVL ?
A) 1960

Values were extracted from patent US20210130436A1.
